Biological target: human recombinant HDAC1 (Homo sapiens, UniProt Q13547)
Construct: purchased Enzo Life Science BML-SE456
Sequence (Q13547 whole entry): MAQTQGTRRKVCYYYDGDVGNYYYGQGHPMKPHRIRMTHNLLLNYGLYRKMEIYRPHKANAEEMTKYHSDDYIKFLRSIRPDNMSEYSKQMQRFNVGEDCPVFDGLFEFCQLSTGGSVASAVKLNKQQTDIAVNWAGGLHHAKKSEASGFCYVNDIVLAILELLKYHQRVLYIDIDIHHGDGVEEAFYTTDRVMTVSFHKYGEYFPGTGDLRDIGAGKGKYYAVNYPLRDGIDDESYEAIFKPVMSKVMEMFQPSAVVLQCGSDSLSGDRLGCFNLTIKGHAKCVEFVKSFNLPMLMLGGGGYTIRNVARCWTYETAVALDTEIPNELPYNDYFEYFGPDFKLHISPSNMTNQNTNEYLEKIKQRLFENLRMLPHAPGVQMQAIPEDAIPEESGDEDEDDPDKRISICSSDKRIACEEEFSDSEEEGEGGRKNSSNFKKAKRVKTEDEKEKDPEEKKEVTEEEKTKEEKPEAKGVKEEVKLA
Assay: HDAC1 enzyme activity inhibition assay (HDAC Fluorimetric Drug Discovery Kit)
Assay type: biochemical
Details: human recombinant HDAC1, Fluor de Lys substrate, 30° C. 60 minutes
Parameter measured: IC50 (µM)

# example entries with known answers
Structure	IC50, µM
COc1cccc(N(Cc2ccc(-c3nnc(C(F)F)o3)cc2)C(=O)N2CCN(C3COC3)CC2)c1	46.3
O=C(N1CCN(C2COC2)CC1)N(Cc1ccc(-c2nnc(C(F)F)o2)cc1)c1ccccc1	35.7
COc1cccc(N(Cc2ccc(-c3nnc(C(F)F)o3)cc2F)C(=O)N2CCN(C3COC3)CC2)c1	48.3
O=C(NCCN1CCS(=O)(=O)CC1)N(Cc1ccc(-c2nnc(C(F)F)o2)cc1F)c1ccccc1	21.4

a = O=C(N1CCN(C2COC2)CC1)N(Cc1ccc(-c2nnc(C(F)F)o2)cn1)c1ccc(F)cc1
b = O=C(N1CCN(C2COC2)CC1)N(Cc1ccc(-c2nnc(C(F)F)o2)cc1F)c1cccc(Cl)c1
c = O=C(N1CCOCC1)N(Cc1ccc(-c2nnc(C(F)(F)F)o2)cc1F)c1ccc(F)c(Cl)c1
Please order the records by their reported IC50, lowest number first. Use the labels to give the requested order.
c, b, a
(c: 14.6 µM, b: 29.6 µM, a: 46 µM)

====

Molecular target: human recombinant HDAC6 (Homo sapiens, UniProt Q9UBN7)
Construct: purchased Calbiochem 382180
Sequence (Q9UBN7 whole entry): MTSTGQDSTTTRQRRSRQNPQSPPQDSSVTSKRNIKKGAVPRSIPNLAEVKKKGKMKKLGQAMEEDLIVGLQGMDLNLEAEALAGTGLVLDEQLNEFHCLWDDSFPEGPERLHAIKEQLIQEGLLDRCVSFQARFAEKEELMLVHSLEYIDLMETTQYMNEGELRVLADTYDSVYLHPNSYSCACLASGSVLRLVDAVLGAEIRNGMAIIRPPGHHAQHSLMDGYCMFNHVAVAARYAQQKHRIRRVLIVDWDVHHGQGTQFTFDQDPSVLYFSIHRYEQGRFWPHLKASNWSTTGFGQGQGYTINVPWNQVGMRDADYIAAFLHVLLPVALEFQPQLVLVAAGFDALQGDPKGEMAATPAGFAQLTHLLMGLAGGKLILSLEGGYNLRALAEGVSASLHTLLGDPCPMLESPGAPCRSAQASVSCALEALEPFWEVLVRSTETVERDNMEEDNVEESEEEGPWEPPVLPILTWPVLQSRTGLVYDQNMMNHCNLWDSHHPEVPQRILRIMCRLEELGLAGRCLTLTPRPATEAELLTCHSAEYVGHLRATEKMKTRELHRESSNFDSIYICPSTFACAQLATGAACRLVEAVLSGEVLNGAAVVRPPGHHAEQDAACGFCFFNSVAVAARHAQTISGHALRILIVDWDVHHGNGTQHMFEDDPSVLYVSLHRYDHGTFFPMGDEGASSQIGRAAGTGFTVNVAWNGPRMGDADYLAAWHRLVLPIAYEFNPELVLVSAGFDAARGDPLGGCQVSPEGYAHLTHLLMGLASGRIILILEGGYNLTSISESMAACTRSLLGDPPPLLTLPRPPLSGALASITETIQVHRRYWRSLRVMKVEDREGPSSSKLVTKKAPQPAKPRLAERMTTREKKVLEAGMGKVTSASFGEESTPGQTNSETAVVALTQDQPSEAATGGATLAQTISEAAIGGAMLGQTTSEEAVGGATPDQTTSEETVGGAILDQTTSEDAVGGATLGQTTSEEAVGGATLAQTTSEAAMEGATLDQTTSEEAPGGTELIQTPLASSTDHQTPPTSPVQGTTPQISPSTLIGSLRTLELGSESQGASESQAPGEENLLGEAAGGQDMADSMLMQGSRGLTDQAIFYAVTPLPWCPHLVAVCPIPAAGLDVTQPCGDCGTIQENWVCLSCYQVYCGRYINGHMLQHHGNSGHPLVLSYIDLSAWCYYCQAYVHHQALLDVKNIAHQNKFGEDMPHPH
Test: HDAC6 enzyme activity inhibition assay (HDAC Fluorimetric Drug Discovery Kit)
Format: biochemical
Settings: HDAC6 over HDAC1
Parameter measured: HDAC6 selectivity (fold)

# example entries with known answers
Structure	HDAC6 selectivity (fold)
CN1CCN(C(=O)N(Cc2ccc(-c3nnc(C(F)F)o3)cc2F)c2cccc(-c3ccncc3)c2)CC1	227
O=C(N1CCS(=O)(=O)CC1)N(Cc1ccc(-c2nnc(C(F)(F)F)o2)cc1)c1cccc(C(F)(F)F)c1	27
CS(=O)(=O)N1CCN(C(=O)N(Cc2ccc(-c3nnc(C(F)(F)F)o3)cc2)c2ccccc2)CC1	118

1 = O=C(N1CCC2(CC1)CNC2)N(Cc1ccc(-c2nnc(C(F)(F)F)o2)cc1)c1ccccc1
2 = O=C(N1CCC(F)(F)C1)N(Cc1ccc(-c2nnc(C(F)(F)F)o2)cc1F)c1ccc(F)c(Cl)c1
# compare HDAC6 selectivity (fold) for 1 vs 2 ; return the one with the smaller value Bench note: the answer is the label of the chosen record.
2

1 = CCN1C[C@@H](C)N(Cc2ccc(N(Cc3ccc(-c4nnc(C(F)F)o4)cc3F)C(=O)N3CCS(=O)(=O)CC3)cc2)[C@@H](C)C1
2 = CCN(CC)c1ccc(N(Cc2ccc(-c3nnc(C(F)(F)F)o3)cc2F)C(=O)N2CCS(=O)(=O)CC2)cc1
Which shows the larger HDAC6 selectivity (fold) value: 1 or 2 ? Bench note: the answer is the label of the chosen record.
1
(1: 15 fold, 2: 7 fold)

P = O=C(N1CCS(=O)(=O)CC1)N(Cc1ccc(-c2nnc(C(F)(F)F)o2)cc1)c1cccc(-c2ccoc2)c1
Q = O=C(N1CCS(=O)(=O)CC1)N(Cc1ccc(-c2nnc(C(F)F)o2)cc1)c1ccc(-c2ccoc2)cc1
R = CCN1CCN(C(=O)N(Cc2ccc(-c3nnc(C(F)F)o3)cn2)c2ccc(F)c(Cl)c2)CC1
Please order the records by their reported HDAC6 selectivity (fold), lowest number first. Use the labels to give the requested order.
P, Q, R
(P: 12 fold, Q: 278 fold, R: 880 fold)
